System: SF-295
Test summary: NCI tumour cell line growth inhibition, 48 h
Active and inactive are the calls of the source. Cut-off read from the data, not from the text of the source: active = GI50 up to about 1.1 µM and inactive = higher.

Compound: COC(OC)c1cc2c(cc1C(=O)[C@@]13CCC[C@@H]1NC(=O)O3)OCO2
GI50: > 100 µM (inactive)
//
Compound: COc1ccc(N2C(=O)C3c4[nH]c5ccccc5c4C4CCC(C(C)(C)C)CC4C3C2=O)cc1OC (stereo unspecified)
GI50: 20.4 µM (inactive)
//
Compound: N=C(N)Nc1ccc(CC(N)C(=O)O)cc1 (stereo unspecified)
GI50: > 12.5 µM (inactive)
//
Compound: CCOC(=O)[C@H](Cc1ccccc1)NC(=O)c1nc[nH]c1[N+](=O)[O-]
GI50: > 100 µM (inactive)
//
Compound: CC(=O)Oc1ccc(CO)cc1OC(C)=O
GI50: > 100 µM (inactive)
//
Compound: CNc1nc(N)nc(Nc2ccc(I)cc2)c1N=O
GI50: > 100 µM (inactive)
